tested on: UACC-257; experiment: NCI tumour cell line growth inhibition, 48 h
Active and inactive are the calls of the source. Rule as the data show it: active = GI50 up to about 1.1 µM and inactive = higher.
Outcomes: 1 for active, 0 for inactive

>>> group("Nc1ncc(Br)c(NCC2(CO)CCC2)n1")
0
>>> group("CC(=O)Nc1ccc(C(=O)NN2C(=O)CSC2c2ccccc2)cc1 (configuration not stated)")
0
>>> group("O=[N+]([O-])/C(C(Cl)=C(Cl)Cl)=C(/Cl)Sc1ccccc1")
0
>>> group("CC(=O)Nc1ccc2c3c(cc(O)c2c1)N(C(=O)CCCC(=O)N1CC(CCl)c2c1cc(O)c1cc(NC(C)=O)ccc21)CC3CCl (configuration not stated)")
1
>>> group("O=C(NC(=S)Nc1ccc2c(c1)Sc1ccccc1O2)c1ccccc1")
0
>>> group("C/C(CC(=O)Nc1cc(Cl)c(Cl)cc1Cl)=N\\NS(=O)(=O)c1ccc(C)cc1")
0
>>> group("CC(=O)/C(=C\\n1c(=S)[nH]c2ccc([N+](=O)[O-])cc21)C(=O)Nc1ccccc1C")
0

* * *

test system: UO-31; test: NCI tumour cell line growth inhibition, 48 h
Calls of active or inactive are those of the source. Cut-off read from the data, not from the text of the source: active = GI50 up to about 1.1 µM and inactive = higher.
Recorded GI50 values for a group of compounds are listed next.
EXPERIMENTAL ENDPOINT: GI50

>>> result("O=c1[nH]nc(Nc2ccccc2)c2nnn(C3CCCCC3)c12")
"> 100 µM (inactive)"
>>> result("Clc1cccc(Cl)c1C1ON=C(c2ccccc2)N1C12CC3CC(CC(C3)C1)C2 (stereo unspecified)")
"58.5 µM (inactive)"
>>> result("O=C(N/C(=C/c1cccc([N+](=O)[O-])c1)c1nc2cc(Cl)ccc2[nH]1)c1ccccc1")
"2.18 µM (inactive)"
>>> result("O=C1N/C(=N\\C2CCCCC2)C2(CCN(CCCC3(c4ccc(F)cc4)OCCO3)CC2)N1c1ccccc1")
"12.6 µM (inactive)"
>>> result("CCOC(=O)c1ccc(Nc2cnc3ccc(C(F)(F)F)cc3n2)cc1")
"20.1 µM (inactive)"
>>> result("Cc1nc2c(sc3nc4c(cc32)CCC4)c(=O)o1")
"> 56.1 µM (inactive)"
>>> result("CCOC(=O)C(NC(=O)c1ccccc1)(Nc1cc(C)on1)C(F)(F)F (stereo unspecified)")
"> 100 µM (inactive)"
>>> result("O=NN(CCCl)C(=O)N[C@H]1CC[C@@H](CC(=O)O)CC1")
"> 100 µM (inactive)"
>>> result("O=C1/C(=C/c2ccc(Cl)cc2)N=C(c2ccccc2)N1c1nc2ccccc2s1")
"37.3 µM (inactive)"
>>> result("CN1CN(c2ccccc2)C2(CCN(CCC3COc4ccccc4O3)CC2)C1=O (stereo unspecified)")
"13.5 µM (inactive)"
>>> result("CCOc1ccc(Nc2nc(C)c(C(=O)/C=C/c3ccc(Cl)cc3Cl)s2)cc1")
"25.2 µM (inactive)"

* * *

test system: SK-MEL-5; assay: NCI tumour cell line growth inhibition, 48 h
Active and inactive are the calls of the source. Rule as the data show it: active = GI50 up to about 1.1 µM and inactive = higher.
Outcomes: yes (active), no (inactive)

>>> group("O=C1N/C(=N\\C2CCCCC2)C2(CCN(CCCC3(c4ccc(F)cc4)OCCO3)CC2)N1c1ccccc1")
"no"
>>> group("CN(C)c1ccc(/C=N\\N2C(=O)c3ccccc3C2=O)cc1")
"no"
>>> group("CCOC(=O)NNC1(SC)NC(=O)c2c(cc(Cl)oc2=O)O1 (stereo unspecified)")
"no"
>>> group("COc1c(Cl)c(=O)oc2ccc(Cl)cc12")
"no"
>>> group("Cc1ccc(S(=O)(=O)NC(=O)NC(CCCCN)C(=O)O)cc1 (stereo unspecified)")
"no"
>>> group("COC(=O)C1=C(O)C(C(=O)OC)[C@]2(O)[C@H](C(=O)OC)[C@H]1C[C@@H](c1ccccc1OC)[C@H]2C(=O)OC (stereo partly specified)")
"no"
>>> group("O1C2C1C1OC1C1OC1C1OC21 (stereo unspecified)")
"no"
>>> group("Cc1nc2c(sc3nc4c(cc32)CCC4)c(=O)o1")
"no"
>>> group("CCCCCCN(CCCCCC)C1=CC(=O)C(=O)c2ccccc21")
"no"
>>> group("O=C(/C=C/c1ccccc1)c1cc(Br)ccc1O")
"no"
>>> group("COc1ccc(C(O)CC(O)(C(F)(F)F)C(F)(F)F)cc1 (stereo unspecified)")
"no"
>>> group("CCOC(=O)/C(=N\\OC)C(O)C(F)(F)F (stereo unspecified)")
"no"
>>> group("CCc1ccccc1NNc1cc(=O)[nH]c(=O)[nH]1")
"no"
>>> group("O=[N+]([O-])c1ccccc1OCCOc1ccccc1[N+](=O)[O-]")
"no"
>>> group("O=C(NCCCCNCCCNC(=O)OCc1ccccc1)OCc1ccccc1")
"no"
>>> group("C[Si](C)(C)CNC(=O)OCc1ccccc1")
"no"
>>> group("Cc1ccc(-c2nc(C)c(C(=O)Nc3ccc(Cl)cc3)s2)cc1")
"no"
>>> group("CCN1C(C)=NC2C(=O)c3ccccc3C(=O)C21 (stereo unspecified)")
"no"
>>> group("O=S(=O)(CC#CCS(=O)(=O)c1ccccc1)c1ccccc1")
"no"
>>> group("CCCCCCCCCC1CC(=O)NCC(=O)NC(C(C)C)C(=O)NC(CC(C)C)C(=O)NC(C)C(=O)NC(C(C)C)C(=O)O1 (stereo unspecified)")
"no"
>>> group("CC1OC(OCC2OC(Oc3c(-c4ccc(O)cc4)oc4cc(O)cc(O)c4c3=O)C(OC3OC(C)C(O)C(O)C3O)C(O)C2O)C(O)C(O)C1O (stereo unspecified)")
"no"
>>> group("O=C(NCc1ccccc1)c1cc2ccccc2o/c1=N\\c1cccc(C(F)(F)F)c1")
"no"
>>> group("Cc1nc2nn(C)cc2c(=O)n1/N=C/c1ccccc1")
"no"
>>> group("Cc1ccc(CSC(=N)Nc2ccccc2)cc1C")
"no"
>>> group("CCN(CC)c1c(C(=O)/C=C/c2ccc(F)cc2)c(-c2ccccc2)nn(C)c1=O")
"no"
>>> group("S=C1NNC(=S)NN1")
"yes"
>>> group("c1ccc2c(NCCCCCCNc3cccc4ccccc34)cccc2c1")
"no"
>>> group("Cn1c2c(c3ccccc31)CCN(CCN1CCN(c3cccc(Cl)c3)CC1)C2=O")
"no"
>>> group("CC1(C)OP(=O)(c2ccccc2)C=C1Br (stereo unspecified)")
"no"
>>> group("CN1CSC(=S)N(c2c3ccccc3nc3ccc(Br)cc23)C1")
"no"
>>> group("CC(=O)O[C@H]1CC[C@H]2[C@@H]3CCc4cc(O)c(I)cc4[C@H]3CC[C@]12C")
"no"

* * *

Recorded GI50 values for a group of molecules are listed next.
system: SF-295; experiment: NCI tumour cell line growth inhibition, 48 h
The source made the active and inactive calls. Cut-off read from the data, not from the text of the source: active = GI50 up to about 1.1 µM and inactive = higher.
EXPERIMENTAL ENDPOINT: GI50

>>> result("Nc1cccc(CCN2CCN(CCCc3ccccc3)CC2)c1")
"24.8 µM (inactive)"
>>> result("Cc1ccc(C2C(Cl)C(=O)N2n2cnc3ccccc3c2=O)cc1 (stereo not drawn)")
"> 100 µM (inactive)"
>>> result("Oc1ccc(Br)cc1/C=N/c1c(NC2CCCCC2)oc2ccc(Br)cc12")
"47.4 µM (inactive)"
>>> result("O=C1c2cc([N+](=O)[O-])cnc2S(=O)(=O)N1c1ccc(Oc2ccccc2)cc1")
"> 100 µM (inactive)"
>>> result("CSc1nc(NC(C)C)c2c(n1)Sc1nc3ccccc3n1N=C2")
"6.03 µM (inactive)"
>>> result("CCCCOP(=O)(OCCCC)/C(C#N)=C/c1ccc(C)o1")
"43.7 µM (inactive)"
>>> result("COc1c(C(CC(C)C)OC(C)=O)ccc2c1C(=O)OCc1cc(C)cc(O)c1O2 (stereo not drawn)")
"14.4 µM (inactive)"
>>> result("NC1C/C(=N\\O)c2c(I)sc(I)c21 (stereo not drawn)")
"17.2 µM (inactive)"

* * *

test system: RXF 393; test: NCI tumour cell line growth inhibition, 48 h
Calls of active or inactive are those of the source. Rule as the data show it: active = GI50 up to about 1.1 µM and inactive = higher. Starred links: 1 amine or outer side, 2 acyl side, 3 side chain; linkers in the order of their positions; H or OH if unused. Positions of bridges follow the written chain, without caps; N, C: chain ends. Non-standard residues stand in square brackets, D forms with d. Residues, ends and D or L forms follow the SMILES beside them. Chains are numbered I, II in the order given. Actinocin(1to9) = Cc1c2oc3c(C)ccc(C(=O)[*:2])c3nc-2c(C(=O)[*:1])c(N)c1=O; NMeV = CN[CH](C(=O)O)C(C)C; Sar = CNCC(=O)O
Outcomes: True for active, False for inactive

>>> group("CC(C)=c1sc(=C(C)C)c2c1=NC(C)(C)N=2")
"False"
>>> group("Cc1c2ccccc2c(=O)n2c(-c3ccccn3)cccc12")
"False"
>>> group("Nc1cccc(CCN2CCN(CCCc3ccccc3)CC2)c1")
"False"
>>> group("N#Cc1c(-c2ccc(Cl)cc2)c(-c2ccc(Cl)cc2)nn(CCOC(=O)CCC(=O)O)c1=O")
"True"
>>> group("COc1ccc(C2S/C(=C\\c3ccc(O)cc3)C(=O)N2NC(=O)Cc2ccccc2)cc1 (centres undefined)")
"False"
>>> group("C=CC1=CSNN1")
"False"
>>> group("CC(=O)NCCc1c(-c2[nH]c3ccccc3c2CCNC(C)=O)[nH]c2ccccc12")
"False"
>>> group("Cc1cc(C)nc(NS(=O)(=O)c2ccc(NC(=O)c3ccc4nc5ccccc5c(Nc5ccc(S(=O)(=O)N=C(N)N)cc5)c4c3)cc2)n1")
"False"
>>> group("COc1ccc(OC)c2c1CC(C(=O)O)(C(=O)O)CC2=O")
"False"
>>> group("O=C(O)CNS(=O)(=O)c1ccc(NC(=O)c2ccc([N+](=O)[O-])cc2)cc1")
"False"
>>> group("C[C@H](CCC1=NCCN1)[C@H]1CC[C@H]2[C@@H]3[C@H](O)C[C@@H]4C[C@H](O)CC[C@]4(C)[C@H]3CC[C@]12C")
"False"
>>> group("O=C1/C(=C/c2ccc(Cl)cc2)N=C(c2ccccc2)N1c1nc2ccccc2s1")
"False"
>>> group("CN1CN(c2ccccc2)C2(CCN(CCC3COc4ccccc4O3)CC2)C1=O (centres undefined)")
"False"
>>> group("CSc1ccc2c(cc1=O)[C@@H](NC(=O)c1ccc(Cl)cc1)CCc1cc(O)c(O)c(O)c1-2")
"False"
>>> group("CCOC(=O)CC(C)C(C#N)(OP1(=O)OC(c2ccccc2)C(C)N1C)c1ccccc1 (centres undefined)")
"False"
>>> group("CCOc1ccc(Nc2nc(C)c(C(=O)/C=C/c3ccc(Cl)cc3Cl)s2)cc1")
"False"
>>> group("COc1ccc(P2(=S)SP(=S)(c3ccc(Cl)cc3)S2)cc1 (centres undefined)")
"False"
>>> group("CC1(CCC(=O)OC2CCCCC2)OCCO1")
"False"
>>> group("O=[N+]([O-])c1cccc(C(O)/C(=N/O)c2nc3ccc(Cl)cc3nc2O)c1 (centres undefined)")
"False"
>>> group("CCC(C)C1NC(=O)C(NC(=O)c2c3nc4c(C(=O)NC5C(=O)NC(C(C)CC)C(=O)N6CCCC6C(=O)N(C)CC(=O)N(C)C(C(C)C)C(=O)OC5C)ccc(C)c4oc-3c(C)c(=O)c2N)C(C)OC(=O)C(C(C)C)N(C)C(=O)CN(C)C(=O)C2CCCN2C1=O (centres undefined) (I: TIP[Sar][NMeV] / II: TIP[Sar][NMeV]; ester I:1-I:C, II:1-II:C; linker I:N-II:N via Actinocin(1to9); configuration not given here)")
"True"
>>> group("CCOC(=O)/C=C(/C=C\\COC1CCCCO1)c1ccccc1 (centres undefined)")
"False"
>>> group("O=[N+]([O-])c1cc2ccc(N(CCO)CCO)nc2nc1N(CCO)CCO")
"False"
>>> group("Nc1nc(OCC2CCCCC2)c2nc[nH]c2n1")
"False"
>>> group("COc1cccc(C2C3=C(COC3=O)Oc3cc4c(cc32)OCO4)c1 (centres undefined)")
"True"
